Molecular target: Synaptic vesicular amine transporter (Rattus norvegicus, UniProt Q01827)
Sequence (Q01827 whole entry): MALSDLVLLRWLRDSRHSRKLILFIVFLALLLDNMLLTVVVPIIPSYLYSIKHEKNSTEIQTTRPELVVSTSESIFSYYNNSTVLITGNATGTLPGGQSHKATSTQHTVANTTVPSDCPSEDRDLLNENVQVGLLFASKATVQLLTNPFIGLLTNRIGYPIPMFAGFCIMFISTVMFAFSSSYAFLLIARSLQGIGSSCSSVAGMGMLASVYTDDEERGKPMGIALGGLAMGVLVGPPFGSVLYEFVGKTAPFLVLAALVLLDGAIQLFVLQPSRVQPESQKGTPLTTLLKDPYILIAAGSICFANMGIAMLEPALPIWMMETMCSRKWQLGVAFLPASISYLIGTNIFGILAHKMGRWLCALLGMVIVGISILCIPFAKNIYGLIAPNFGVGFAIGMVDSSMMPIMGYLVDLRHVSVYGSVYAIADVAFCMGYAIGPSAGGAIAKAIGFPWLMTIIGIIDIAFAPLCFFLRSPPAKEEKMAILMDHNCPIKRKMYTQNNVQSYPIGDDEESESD
Experiment: Inhibition of [3H]DTBZ binding to VMAT2 in rat synaptic vesicle membranes
Assay type: cell membranes
Measured Metric: Ki (nM)

Smiles Structure	System	Ki [nM]
OC[C@@H](O)CN1[C@@H](CCc2ccccc2)CCC[C@H]1CCc1ccccc1	Synaptic vesicular amine transporter (Rattus norvegicus, UniProt Q01827)	1280
COc1ccc(F)c(CC[C@H]2CCC[C@@H](CCc3cc(OC)ccc3F)N2)c1	Synaptic vesicular amine transporter (Rattus norvegicus, UniProt Q01827)	930
OC[C@H](O)CN1[C@@H](CCc2ccc(OC(F)F)cc2)CCC[C@H]1CCc1ccc(OC(F)F)cc1	Synaptic vesicular amine transporter (Rattus norvegicus, UniProt Q01827)	530
OC[C@@H](O)CN1[C@@H](CCc2ccc3c(c2)OCO3)CCC[C@H]1CCc1ccc2c(c1)OCO2	Synaptic vesicular amine transporter (Rattus norvegicus, UniProt Q01827)	5610
OC[C@@H](O)CN1[C@@H](CCc2ccc(-c3ccccc3)cc2)CCC[C@H]1CCc1ccc(-c2ccccc2)cc1	Synaptic vesicular amine transporter (Rattus norvegicus, UniProt Q01827)	90200
COC(=O)CN1[C@@H](CCc2ccccc2)CCC[C@H]1CCc1ccccc1	Synaptic vesicular amine transporter (Rattus norvegicus, UniProt Q01827)	4400
Fc1cc(F)cc(CC[C@H]2CCC[C@@H](CCc3cc(F)cc(F)c3)N2)c1	Synaptic vesicular amine transporter (Rattus norvegicus, UniProt Q01827)	5240

A = OC[C@H](O)CN1[C@@H](CCc2cccc3ccccc23)CCC[C@H]1CCc1cccc2ccccc12
B = OC[C@H](O)CN1[C@@H](CCc2cc(F)cc(F)c2)CCC[C@H]1CCc1cc(F)cc(F)c1
C = COc1cccc(CC[C@H]2CCC[C@@H](CCc3cccc(OC)c3)N2C[C@H](O)CO)c1
D = COc1ccc(C[C@H]2CCC[C@@H](Cc3ccc(OC)cc3)N2)cc1
Please give the order of these molecules when sorted by Ki, largest value leading. Reply: labels, ordered per the request.
D, C, B, A
(D: 13100 nM, C: 2730 nM, B: 620 nM, A: 310 nM)
